Fab Tm values for the molecules below.
experiment: Thermal stability by differential scanning calorimetry (DSC); format: physicochemical; conditions: 0.4 mg/mL in PBS
ENDPOINT LABEL: Fab Tm (°C)

[[record]]
molecule = "v29449: \"Representative humanized antibody variants ... of the mouse antibody\" that specifically binds hNaPi2b (antibody, V domains shown, v29449, v29453, v29457 H4; v29449 L3) VH: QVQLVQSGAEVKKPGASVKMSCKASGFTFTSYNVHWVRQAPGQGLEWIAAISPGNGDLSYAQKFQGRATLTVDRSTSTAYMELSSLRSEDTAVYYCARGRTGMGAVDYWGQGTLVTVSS VL: DVQMTQSPSSLSASVGDRVTITCRASQDVYSYLNWYQQKPGKAVKLLIYYTSRLQSGVPSRFSGSGSGTDYTLTISSLQPEDIATYYCQQYNIFPWTFGQGTKLEIK"
unit_of_measurement = "°C"
recorded_result = 80.0

[[record]]
molecule = "v29454: \"Representative humanized antibody variants ... of the mouse antibody\" that specifically binds hNaPi2b (antibody, V domains shown, v29450, v29454, v29458 H3; v29453, v29454, v29455, v29456 L2) VH: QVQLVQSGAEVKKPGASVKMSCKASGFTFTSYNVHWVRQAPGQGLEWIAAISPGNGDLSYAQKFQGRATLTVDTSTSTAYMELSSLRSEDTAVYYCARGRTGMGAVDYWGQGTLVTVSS VL: DVQMTQSPSSLSASVGDRVTITCRASQDVYSYLNWYQQKPGKAVKLLIYYTSRLQSGVPSRFSGSGSGTDYTLTISSLQPEDFATYYCQQYNIFPWTFGQGTKLEIK"
unit_of_measurement = "°C"
recorded_result = 79.7

[[record]]
molecule = "v29459: \"Representative humanized antibody variants ... of the mouse antibody\" that specifically binds hNaPi2b (antibody, V domains shown, v29451, v29455, v29459 H2; v29457, v29458, v29459, v29460 L1) VH: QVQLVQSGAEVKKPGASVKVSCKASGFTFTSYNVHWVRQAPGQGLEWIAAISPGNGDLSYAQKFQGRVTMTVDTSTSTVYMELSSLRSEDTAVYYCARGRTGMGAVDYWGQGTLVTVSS VL: DIQMTQSPSSLSASVGDRVTITCRASQDVYSYLNWYQQKPGKAPKLLIYYTSRLQSGVPSRFSGSGSGTDFTLTISSLQPEDFATYYCQQYNIFPWTFGQGTKLEIK"
unit_of_measurement = "°C"
recorded_result = 83.1

[[record]]
molecule = "v29460: \"Representative humanized antibody variants ... of the mouse antibody\" that specifically binds hNaPi2b (antibody, V domains shown, v29452, v29460 H1; v29457, v29458, v29459, v29460 L1) VH: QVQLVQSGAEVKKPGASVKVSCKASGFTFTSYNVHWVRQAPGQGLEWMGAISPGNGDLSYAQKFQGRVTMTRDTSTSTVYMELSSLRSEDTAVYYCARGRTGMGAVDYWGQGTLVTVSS VL: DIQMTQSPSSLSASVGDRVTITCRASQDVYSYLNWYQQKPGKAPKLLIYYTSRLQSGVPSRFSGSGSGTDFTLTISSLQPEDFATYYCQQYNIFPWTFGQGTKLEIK"
unit_of_measurement = "°C"
recorded_result = 80.3


Source listed as patent US20260232827A1.
